target: T1, human CD4 on cells (SKW3 cells; human PBMCs) (human, UniProt P01730 26-458); assay: FACS confirmation, supernatant on human PBMCs;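 note: flow cytometry with hybridoma supernatants incubated on human PBMCs for 30 min at 4 °C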
T1 construct: whole, on cells; SKW3 CD4 knockout cells served as the negative cell line in the primary screen; also called hCD4; huCD4
Assign labels as follows, please: Condition met for PBMCs CD4+ percent bound of viable below 30%; Condition not met for PBMCs CD4+ percent bound of viable equal to or exceeding 30%.

Does this binder meet the criterion PBMCs CD4+ percent bound of viable < 30%? 75110_06K03A (antibody, V domains shown, Tested as non-clonal AlivaMab Mouse Kappa hybridoma supernatant (detected with anti-mouse Fc gamma and anti-human kappa)) VH: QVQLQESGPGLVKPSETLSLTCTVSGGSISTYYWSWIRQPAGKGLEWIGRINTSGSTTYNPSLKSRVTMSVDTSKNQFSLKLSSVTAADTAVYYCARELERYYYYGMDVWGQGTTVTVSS VL: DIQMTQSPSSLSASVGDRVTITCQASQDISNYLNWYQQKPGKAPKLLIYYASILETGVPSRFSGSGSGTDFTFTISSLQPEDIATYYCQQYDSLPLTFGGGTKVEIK
Condition not met

Does this binder meet the criterion PBMCs CD4+ percent bound of viable < 30%? 75110_14N19A (antibody, V domains shown, Tested as non-clonal AlivaMab Mouse Kappa hybridoma supernatant (detected with anti-mouse Fc gamma and anti-human kappa)) VH: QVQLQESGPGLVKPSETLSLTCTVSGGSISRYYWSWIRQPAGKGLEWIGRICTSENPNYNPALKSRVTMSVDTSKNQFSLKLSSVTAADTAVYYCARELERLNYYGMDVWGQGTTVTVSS VL: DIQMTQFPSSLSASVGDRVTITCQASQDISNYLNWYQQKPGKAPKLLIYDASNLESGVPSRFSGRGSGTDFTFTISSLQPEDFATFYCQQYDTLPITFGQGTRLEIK
Condition met

Does this binder meet the criterion PBMCs CD4+ percent bound of viable < 30%? 75110_08K12A (antibody, V domains shown, Tested as non-clonal AlivaMab Mouse Kappa hybridoma supernatant (detected with anti-mouse Fc gamma and anti-human kappa)) VH: EVQLVESGGGLVQPGGSLRLSCAASGFTFSSYDMHWVRQATGKGLEWVSTIGTAGDTYYPGSVKGRFTISRENAENSLYLQMNSLRAGDTALYYCARGDYYYYGMDVWGQGTTVTVSS VL: EIVLTQSPGTLSLSPGERATLSCRASQSVSSTYLAWYQQKPGQAPRLLIYGASNRATGIPDRFSGSGSGTDFTLTISRLEPEDFAVYYCQQFGTSPFTFGPGTKVDIK
Condition met

Does this binder meet the criterion PBMCs CD4+ percent bound of viable < 30%? 75110_07J02A (antibody, V domains shown, Tested as non-clonal AlivaMab Mouse Kappa hybridoma supernatant (detected with anti-mouse Fc gamma and anti-human kappa)) VH: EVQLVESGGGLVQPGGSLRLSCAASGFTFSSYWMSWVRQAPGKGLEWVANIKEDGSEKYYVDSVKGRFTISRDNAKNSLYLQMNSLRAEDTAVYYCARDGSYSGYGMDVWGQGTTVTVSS VL: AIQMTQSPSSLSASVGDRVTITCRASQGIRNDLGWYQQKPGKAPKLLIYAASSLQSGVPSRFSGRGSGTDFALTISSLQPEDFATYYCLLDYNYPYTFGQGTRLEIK
Condition met

Does this binder meet the criterion PBMCs CD4+ percent bound of viable < 30%? 75110_02N15A (antibody, V domains shown, Tested as non-clonal AlivaMab Mouse Kappa hybridoma supernatant (detected with anti-mouse Fc gamma and anti-human kappa)) VH: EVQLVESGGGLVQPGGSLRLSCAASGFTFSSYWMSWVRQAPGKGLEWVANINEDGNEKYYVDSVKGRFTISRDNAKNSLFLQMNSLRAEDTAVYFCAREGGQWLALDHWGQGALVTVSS VL: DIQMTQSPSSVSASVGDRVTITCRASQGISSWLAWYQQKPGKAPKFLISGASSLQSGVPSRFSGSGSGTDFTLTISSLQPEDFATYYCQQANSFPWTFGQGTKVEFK
Condition met

Does this binder meet the criterion PBMCs CD4+ percent bound of viable < 30%? 75110_08F20A (antibody, V domains shown, Tested as non-clonal AlivaMab Mouse Kappa hybridoma supernatant (detected with anti-mouse Fc gamma and anti-human kappa)) VH: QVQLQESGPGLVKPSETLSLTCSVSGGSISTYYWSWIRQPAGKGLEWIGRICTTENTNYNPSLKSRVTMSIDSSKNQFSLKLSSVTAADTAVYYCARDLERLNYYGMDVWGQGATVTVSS VL: DIQMTQSPSSLSASVGDRVTITCQASQDISKYLNWYQQKPGIAPKLLIYDASNLETGVPSRFSGSGSGTDFTFTISSLQPEDFATYYCQQYDSLPITFGQGTRLEIK
Condition not met

Please turn your attention to the following entry.
Does this binder meet the criterion PBMCs CD4+ percent bound of viable < 30%? 75110_10O16A (antibody, V domains shown, Tested as non-clonal AlivaMab Mouse Kappa hybridoma supernatant (detected with anti-mouse Fc gamma and anti-human kappa); also called 75110_10016A) VH: EVQLVESGGGLVQPGGSLRLSCAASGFTFSNSDMHWVRQATGKGLEWVSTIGTAGDTYYPGSVKGRFTISRENAKNSLYLQMNSLRAGDTAVYYCARGGLYYYGMDVWGQGTTVTVSS VL: ENVLTQSPGTLSLSPGERATLSCRASQSVSSSYLAWYQQKPGQAPRLLIYGASSRATGIPDRFSGSGSGTDFTLTISRLEPEDFAVYYCHQFGSSPFTFGPGTKVDIK
Condition met

The values you see were collected from patent US20220112288A1.
